Assay: Long-term stability of QC samples (−20 °C for 20 days)
Type: physicochemical, rat
Conditions: plasma QC, spiked 300 ng/mL
Hi there, I'd appreciate the recorded Long-term stability Mean for every entry that follows.

The measured Long-term stability Mean associated with `C=C1CC[C@@H]2[C@](C)(CO)CCC[C@@]2(C)[C@@H]1CCC1=CCOC1=O` reads 90.66%

The measured Long-term stability Mean associated with C=C1CC[C@@H]2[C@](C)(CO[C@@H]3O[C@H](CO)[C@@H](O)[C@H](O)[C@H]3O)CCC[C@@]2(C)[C@@H]1CCC1=CCOC1=O [Analyte 5, neoandrographolide] reads 97.44%

The measured Long-term stability Mean associated with COc1cc(/C=C/C(=O)O)ccc1O [Analyte 6, trans-ferulic acid] reads 91.27%

The measured Long-term stability Mean associated with C=C1CC[C@@H]2[C@](C)(CO)[C@H](O)CC[C@@]2(C)[C@@H]1C/C=C1/C(=O)OC[C@H]1O [Analyte 12, andrographolide] reads 94.37%

The measured Long-term stability Mean associated with C=C1CC[C@@H]2[C@](C)(CO)[C@H](O)CC[C@@]2(C)[C@@H]1/C=C/C1=CCOC1=O [Analyte 15, 14-deoxy-11,12-didehydro-andrographolide] reads 98.43%

The measured Long-term stability Mean associated with `COc1cc(O)c2c(=O)cc(-c3ccccc3)oc2c1OC` reads 85.96%
